System: LOX IMVI melanoma
ASSAY METHOD TEXT: NCI tumour cell line growth inhibition, 48 h
Tag: T if measured TGI is not below 20 µM, F if it is.

| COMPOUND | LABEL CLASS |
| --- | --- |
| NC(=O)c1ncn(C2OC(CO)C(O)C2O)c1O (centres undefined) | T |
| COc1cccc(CCNc2c(C#N)c3n(c4ccccc4[n+]3C)c3ncccc23)c1 | F |
| CC#COS(=O)(=O)c1ccc(C)cc1 | T |
| CN1CCN(c2ccc(NC3=CC(=O)c4ncncc4C3=O)cc2)CC1 | F |
| C(=N\NC1=NCCN1)/c1ccc2ccccc2c1 | T |
| COc1cc(/C=C/C(=N\NC(N)=S)c2sc(NNC(C)=O)nc2C)ccc1O | T |
| C=C(C)C(=O)Nc1ccc(-c2c(-c3ccc(Oc4nccc(C)n4)c(F)c3)c3c(N)ncnc3n2C)cc1 | F |
| O=C1CC(c2ccccc2)n2c(nc3ccccc32)N1 (centres undefined) | T |
| CCOC(=O)N1CCC2(CC1)C[C@@](C(C)=O)(c1ccccc1)C(C)O2 (some centres undefined) | T |
| CN(CCCCCl)P(=O)(OCc1ccc([N+](=O)[O-])o1)OCC1OC(n2cc([N+](=O)[O-])c(=O)[nH]c2=O)CC1O (centres undefined) | T |
| Nc1ccn(C2CCC(COP(=O)(O)OCC(O)COP(=O)(O)OCC3OC(n4cc(F)c(=O)[nH]c4=O)CC3O)O2)c(=O)n1 (centres undefined) | T |
| Cc1ccc(S(=O)(=O)C2CC2(Cl)Cl)cc1 (centres undefined) | T |
| COc1cc(O)c(Cc2ccccc2O)c(O)c1C(=O)CCc1ccccc1 | T |
